PROTOCOL DETAILS: in vivo
Assay type: in vivo, SD rats
CONDITION NOTES: SD, rat, in vivo, iv; rats, i.v. 45 mg/kg, 4 h after administration, average; read-out: Drug concentrations in brain tissue
# concentration at 4 h annotations
OBSERVED PROPERTY: concentration at 4 h

• CCCc1cc(-c2cc(C(C)C)c(O)c(C(C)C)c2)cc(CCC)c1O [Compound 1] = 6870 ng/g
• CC(C)c1cc(-c2cc(C(C)C)c(O)c(C(C)C)c2)cc(C(C)C)c1O [Dipropofol, reference compound] = 5520 ng/g

* * *

PROTOCOL DETAILS: in vivo
Type: in vivo, SD rats
CONDITION NOTES: SD, rat, in vivo, iv; rats, i.v. 45 mg/kg, 5 min after administration, average; read-out: Drug concentrations in brain tissue
OBSERVED PROPERTY: concentration at 5 min (ng/g)

- CCCc1cc(-c2cc(C(C)C)c(O)c(C(C)C)c2)cc(CCC)c1O [Compound 1]: 37600
- CC(C)c1cc(-c2cc(C(C)C)c(O)c(C(C)C)c2)cc(C(C)C)c1O [Dipropofol, reference compound]: 12800

Data origin, for the record: patent US12121498B2
